The measured values listed here are drawn from patent US20210363269A1.

Consider the following binders; for each one, report its koff.
- MEASUREMENT TARGET: T1, human SIRP-α v1 (human, UniProt P78324 31-149)
- T1 construct: also called Human v1; Human V1
- T1 sequence (P78324 31-149 limits assumed): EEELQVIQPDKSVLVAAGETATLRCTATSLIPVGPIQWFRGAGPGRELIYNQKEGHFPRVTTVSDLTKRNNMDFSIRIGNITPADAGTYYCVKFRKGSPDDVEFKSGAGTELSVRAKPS
- TEST NAME: SPR
Answers are plain numbers, in s⁻¹.

Some solved cases for reference:
BINDER | MEASURED METRIC | MEASURED VALUE
antibody 21 (antibody, V domains shown, also called AB21; S21) VH: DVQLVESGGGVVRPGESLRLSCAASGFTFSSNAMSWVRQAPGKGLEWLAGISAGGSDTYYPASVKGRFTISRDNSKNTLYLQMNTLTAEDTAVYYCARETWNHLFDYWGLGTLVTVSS VL: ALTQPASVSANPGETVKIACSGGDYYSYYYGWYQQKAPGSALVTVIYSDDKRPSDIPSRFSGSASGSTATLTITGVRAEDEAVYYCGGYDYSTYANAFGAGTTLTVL | koff | 0.000707
antibody 25 (antibody, V domains shown, also called AB25; S25) VH: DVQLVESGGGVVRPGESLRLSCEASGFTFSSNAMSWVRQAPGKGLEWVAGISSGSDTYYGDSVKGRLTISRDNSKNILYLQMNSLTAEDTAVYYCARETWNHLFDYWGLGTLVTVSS VL: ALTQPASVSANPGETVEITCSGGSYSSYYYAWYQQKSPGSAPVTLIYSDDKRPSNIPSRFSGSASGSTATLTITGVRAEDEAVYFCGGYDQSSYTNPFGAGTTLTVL | koff | 0.000165
antibody 27 (antibody, V domains shown, also called AB27; S27) VH: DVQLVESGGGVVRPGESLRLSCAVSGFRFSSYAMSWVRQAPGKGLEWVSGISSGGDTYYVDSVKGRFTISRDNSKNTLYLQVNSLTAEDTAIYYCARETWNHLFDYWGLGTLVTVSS VL: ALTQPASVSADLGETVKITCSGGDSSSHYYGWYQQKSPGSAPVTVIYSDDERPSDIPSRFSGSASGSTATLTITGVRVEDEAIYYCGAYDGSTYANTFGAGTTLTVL | koff | 0.000315
antibody 66 (antibody, V domains shown, also called AB66; S66) VH: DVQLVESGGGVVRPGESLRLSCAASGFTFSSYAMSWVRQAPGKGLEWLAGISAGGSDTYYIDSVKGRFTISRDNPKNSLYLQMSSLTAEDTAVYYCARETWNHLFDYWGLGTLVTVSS VL: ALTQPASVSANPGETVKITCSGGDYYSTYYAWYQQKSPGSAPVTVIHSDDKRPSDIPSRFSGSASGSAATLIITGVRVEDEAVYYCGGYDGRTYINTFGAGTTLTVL | koff | 0.000949

Let us move to another entry and its koff.
Query: // koff lookup, key: Hum1/AB21_HC_wt (antibody, V domains shown) VH: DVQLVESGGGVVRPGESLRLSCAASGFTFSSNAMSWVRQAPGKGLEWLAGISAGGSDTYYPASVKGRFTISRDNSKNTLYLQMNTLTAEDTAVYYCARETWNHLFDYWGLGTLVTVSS VL: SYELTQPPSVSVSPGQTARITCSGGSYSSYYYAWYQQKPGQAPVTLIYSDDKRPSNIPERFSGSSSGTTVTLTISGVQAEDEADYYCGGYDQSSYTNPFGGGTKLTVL
Result: 0.000193
